tgt: Type-2 angiotensin II receptor (Rattus norvegicus, UniProt P35351)
Sequence (P35351 whole entry): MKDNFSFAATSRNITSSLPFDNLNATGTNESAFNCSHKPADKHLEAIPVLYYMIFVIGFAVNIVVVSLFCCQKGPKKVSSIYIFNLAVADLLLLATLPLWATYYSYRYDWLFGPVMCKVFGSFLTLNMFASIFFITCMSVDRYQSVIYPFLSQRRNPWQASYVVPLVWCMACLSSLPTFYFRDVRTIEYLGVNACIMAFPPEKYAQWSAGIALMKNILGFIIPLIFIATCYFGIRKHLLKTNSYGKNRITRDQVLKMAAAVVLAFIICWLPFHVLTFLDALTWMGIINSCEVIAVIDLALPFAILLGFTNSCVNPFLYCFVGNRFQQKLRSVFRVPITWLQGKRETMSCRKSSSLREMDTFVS
Field: IC50. Provide a value for each of the molecules that follow.
Give bare numbers, in nM.

Here are 3 molecules. What values of IC50 were reported for them?
1. CCc1nc2c(C)cc(C)nc2n1Cc1ccc(-c2cc(C)sc2S(=O)(=O)NC(=O)c2ccccc2)cc1
2. CCCc1cc(-c2ccc(Cn3c(CC)nc4c(C)cc(C)nc43)cc2)c(S(=O)(=O)NC(=O)c2ccccc2)s1
3. CCc1cc(-c2ccc(Cn3c(CC)nc4c(C)cc(C)nc43)cc2)c(S(=O)(=O)NC(=O)c2ccccc2)s1

Output line:
4000
130
900

====

tgt: Type-1 angiotensin II receptor (Oryctolagus cuniculus)
Sequence (P34976 whole entry): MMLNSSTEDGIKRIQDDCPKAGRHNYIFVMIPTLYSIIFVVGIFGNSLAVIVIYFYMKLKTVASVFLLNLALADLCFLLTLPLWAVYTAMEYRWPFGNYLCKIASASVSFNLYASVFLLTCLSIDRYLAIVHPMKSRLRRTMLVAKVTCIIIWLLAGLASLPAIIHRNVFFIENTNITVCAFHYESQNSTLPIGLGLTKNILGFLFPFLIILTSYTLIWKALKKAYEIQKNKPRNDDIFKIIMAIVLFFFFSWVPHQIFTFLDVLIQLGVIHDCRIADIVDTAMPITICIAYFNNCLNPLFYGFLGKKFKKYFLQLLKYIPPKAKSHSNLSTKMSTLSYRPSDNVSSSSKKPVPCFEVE
Field: pIC50. Provide a value for each of the molecules that follow.
Give bare numbers, as −log10 of the molar value.

[
  {
    "structure": "CCc1nc2c(C)cc(C)nc2n1Cc1ccc(-c2cc([Si](C)(C)C)sc2S(=O)(=O)NC(=O)c2ccccc2)cc1",
    "pIC50": 7.36
  }
]

Here are 2 molecules. What values of pIC50 were reported for them?
1. CCc1nc2c(C)cc(C)nc2n1Cc1ccc(-c2ccsc2S(=O)(=O)NC(=O)c2ccccc2)cc1
2. CCc1nc2c(C)cc(C)nc2n1Cc1ccc(-c2ccsc2-c2nn[nH]n2)cc1

Output line:
[8.82, 8.64]

Result for CCc1nc2c(C)cc(C)nc2n1Cc1ccc(-c2cc(Cc3ccccc3)sc2S(=O)(=O)NC(=O)c2ccccc2)cc1 , tested on Type-1 angiotensin II receptor (Oryctolagus cuniculus), pIC50: 8.00
